assay: Solubility (Test F), McIlvaine buffer pH 6.5; assay type: physicochemical; details: disodium hydrogenphosphate-citric acid (McIlvaine) buffer, 25 °C, pH 6.5, aqueous buffer, thermodynamic from solid, McIlvaine buffer pH 6.5, 25° C., 24 to 72 h; theoretical maximum 200 μM
Label scheme for solubility: lower than 20 µg/mL is False, 20 µg/mL and above is True.

// inclusive: solubility at least 20 µg/mL? input: OC[C@@H](O)CNc1nnc(-c2ccc(C(F)(F)F)cc2O)c2ccccc12
True

// inclusive: solubility at least 20 µg/mL? input: CCc1ccc(-c2nnc(N[C@@H]3CCC[C@H](O)C3)c3cnccc23)c(O)c1
True

// inclusive: solubility at least 20 µg/mL? input: CC(C)(O)CNc1nnc(-c2ccc(C(F)(F)F)cc2O)c2ccncc12
False

// inclusive: solubility at least 20 µg/mL? input: Oc1cc(C(F)(F)F)ccc1-c1nnc(N[C@@H]2CC[C@H](O)C2)c2cnccc12
False

// inclusive: solubility at least 20 µg/mL? input: CC(C)(O)CNc1nnc(-c2ccc(OC(F)(F)F)cc2O)c2ccncc12
False

// inclusive: solubility at least 20 µg/mL? input: Oc1cc(Cl)ccc1-c1nnc(N[C@@H]2CCCC[C@H]2O)c2cnccc12
True

// inclusive: solubility at least 20 µg/mL? input: Oc1cc(C(F)(F)F)ccc1-c1nnc(N[C@H]2CC[C@@H](O)C2)c2cnccc12
False

// inclusive: solubility at least 20 µg/mL? input: Cc1ccc2c(-c3ccc(C(F)(F)F)cc3O)nnc(NC[C@H](O)CO)c2c1
True

----------
molecular target: Human NLRP3 (Homo sapiens (Human), UniProt Q96P20); details: Test C IC50, IL-1β release, THP-1 cells, LPS 2 μg/mL 24 h, BzATP 1 mM
Sequence (Q96P20 whole entry): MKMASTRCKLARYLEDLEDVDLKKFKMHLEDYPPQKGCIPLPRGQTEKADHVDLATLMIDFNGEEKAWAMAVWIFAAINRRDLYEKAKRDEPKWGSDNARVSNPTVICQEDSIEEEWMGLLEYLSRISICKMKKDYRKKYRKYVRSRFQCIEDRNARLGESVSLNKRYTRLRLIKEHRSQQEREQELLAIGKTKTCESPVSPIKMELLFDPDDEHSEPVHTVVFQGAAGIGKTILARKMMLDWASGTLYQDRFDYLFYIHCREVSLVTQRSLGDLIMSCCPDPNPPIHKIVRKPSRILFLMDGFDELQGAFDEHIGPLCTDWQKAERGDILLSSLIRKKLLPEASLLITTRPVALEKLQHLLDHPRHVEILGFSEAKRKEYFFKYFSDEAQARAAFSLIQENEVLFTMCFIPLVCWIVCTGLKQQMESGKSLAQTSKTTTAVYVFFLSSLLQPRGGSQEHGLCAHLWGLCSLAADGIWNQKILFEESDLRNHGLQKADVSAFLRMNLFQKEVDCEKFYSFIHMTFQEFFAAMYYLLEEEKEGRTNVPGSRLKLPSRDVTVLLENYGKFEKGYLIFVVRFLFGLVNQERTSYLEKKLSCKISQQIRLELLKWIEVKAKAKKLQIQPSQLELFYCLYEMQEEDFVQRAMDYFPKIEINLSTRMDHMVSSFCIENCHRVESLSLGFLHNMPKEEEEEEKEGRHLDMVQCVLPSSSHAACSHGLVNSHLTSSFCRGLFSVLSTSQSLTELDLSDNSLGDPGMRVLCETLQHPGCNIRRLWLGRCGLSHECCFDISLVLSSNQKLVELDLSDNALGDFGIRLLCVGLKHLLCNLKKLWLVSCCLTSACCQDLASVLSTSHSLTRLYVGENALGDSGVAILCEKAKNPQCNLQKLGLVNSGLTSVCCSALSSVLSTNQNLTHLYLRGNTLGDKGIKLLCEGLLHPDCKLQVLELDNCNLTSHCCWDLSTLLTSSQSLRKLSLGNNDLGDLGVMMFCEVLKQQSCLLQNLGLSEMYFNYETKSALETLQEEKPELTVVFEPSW
experimental.endpoint: pIC50
pIC50 field: float, defined as -log10 of concentration (mol/L).

pIC50 reported for this molecule CS(=O)(=O)c1ccc(-c2nnc(N[C@@H]3CC[C@@H](O)C3)c3ccccc23)c(O)c1 : 6.13

pIC50 reported for this molecule Oc1cc(Cl)cc(F)c1-c1nnc(N[C@@H]2CCC[C@H](O)C2)c2cnccc12 : 8.52

pIC50 reported for this molecule Oc1cc(C(F)(F)F)ccc1-c1nnc(N[C@H]2CCCC[C@H]2O)c2ccccc12 : 8.10

pIC50 reported for this molecule Oc1cc(C(F)(F)F)ccc1-c1nnc(N[C@H]2CCCC[C@@H]2O)c2ccccc12 : 6.22

pIC50 reported for this molecule C[C@@]1(O)CCC[C@@H](Nc2nnc(-c3ccc(C(F)(F)F)cc3O)c3ccncc23)C1 : 8.15

pIC50 reported for this molecule Oc1cc(C(F)(F)F)ccc1-c1nnc(N[C@H]2CC[C@@H](O)C2)c2ccccc12 (single isomer, unassigned) [Example 35] : 7.16

pIC50 reported for this molecule C[C@]1(O)CCC[C@@H](Nc2nnc(-c3ccc(C(F)(F)F)cc3O)c3ccncc23)C1 : 8.22

pIC50 reported for this molecule Oc1cc(C(F)(F)F)ccc1-c1nnc(N[C@H]2CC[C@@H](O)C2)c2ccccc12 (single isomer, unassigned) [Example 34] : 7.74

pIC50 reported for this molecule OC[C@@H](O)CNc1nnc(-c2ccc(Cl)cc2O)c2ccccc12 : 7.77

pIC50 reported for this molecule Oc1cccc(F)c1-c1nnc(N[C@@H]2CCC[C@H](O)C2)c2cnccc12 : 7.17

pIC50 reported for this molecule Oc1cc(C(F)(F)F)ccc1-c1nnc(N[C@@H]2CCCC[C@@H]2O)c2ccccc12 : 7.85

pIC50 reported for this molecule CCc1ccc(-c2nnc(N[C@@H]3CCC[C@H](O)C3)c3cnccc23)c(O)c1 : 8.40

pIC50 reported for this molecule OC[C@@H](O)CNc1nnc(-c2c(O)cc(Cl)cc2F)c2ccccc12 : 7.96

pIC50 reported for this molecule CC(C)(O)CNc1nnc(-c2ccc(Cl)cc2O)c2ccncc12 : 7.85

pIC50 reported for this molecule Oc1cc(Cl)ccc1-c1nnc(N[C@@H]2CCCC[C@H]2O)c2cnccc12 : 8.70

----------
target: Human NLRP3 (Homo sapiens (Human), UniProt Q96P20); assay: Human NLRP3 speck formation assay (Test A), nigericin triggered ASC-speck formation in ASC-GFP reporter monocytes
experimental.endpoint: pEC50
pEC50 field: float, defined as -log10 of concentration (mol/L).

pEC50 reported for this compound Oc1cc(C(F)(F)F)ccc1-c1nnc(N[C@@H]2CCC[C@@H]2O)c2ccccc12 [Example 19] : 7.59

pEC50 reported for this compound C[C@]1(O)C[C@@H](Nc2nnc(-c3ccc(Cl)cc3O)c3ccncc23)C1 [Example 68] : 7.72

pEC50 reported for this compound C[C@]1(O)CC[C@@H](Nc2nnc(-c3ccc(C(F)(F)F)cc3O)c3ccncc23)C1 [Example 39] : 7.23

pEC50 reported for this compound C[C@]1(O)C[C@@H](Nc2nnc(-c3ccc(C(F)(F)F)cc3O)c3ccccc23)C1 [Example 37] : 6.47

----------
molecular target: Human NLRP3 (Homo sapiens (Human)); assay: Human NLRP3 speck formation assay (Test A), nigericin triggered ASC-speck formation in ASC-GFP reporter monocytes
Assignment: determine reported pEC50 for the given compounds.
pEC50 field: float, defined as -log10 of concentration (mol/L).

The reported pEC50 value, Human NLRP3 (Homo sapiens (Human)), for CC(C)(O)CNc1nnc(-c2c(O)cc(Cl)cc2F)c2ccncc12 reads 6.85

The reported pEC50 value, Human NLRP3 (Homo sapiens (Human)), for Oc1cc(F)ccc1-c1nnc(N[C@@H]2CCCC[C@H]2O)c2cnccc12 reads 6.91

The reported pEC50 value, Human NLRP3 (Homo sapiens (Human)), for CC(C)(O)CNc1nnc(-c2c(O)cc(C(F)(F)F)cc2F)c2ccncc12 reads 6.69

The reported pEC50 value, Human NLRP3 (Homo sapiens (Human)), for Oc1cccc(F)c1-c1nnc(N[C@@H]2CCCC[C@H]2O)c2ccncc12 reads 5.53

The reported pEC50 value, Human NLRP3 (Homo sapiens (Human)), for C[C@]1(O)CCC[C@@H](Nc2nnc(-c3ccc(C(F)(F)F)cc3O)c3ccncc23)C1 reads 7.22

The reported pEC50 value, Human NLRP3 (Homo sapiens (Human)), for Oc1cc(C(F)(F)F)ccc1-c1nnc(N[C@H]2CCCC[C@@H]2O)c2ccccc12 reads 5.70

The reported pEC50 value, Human NLRP3 (Homo sapiens (Human)), for C[C@]1(O)C[C@@H](Nc2nnc(-c3c(O)cc(C(F)(F)F)cc3F)c3ccncc23)C1 reads 7.17

The reported pEC50 value, Human NLRP3 (Homo sapiens (Human)), for C[C@]1(O)C[C@@H](Nc2nnc(-c3ccc(Cl)c(F)c3O)c3ccncc23)C1 reads 6.43

The reported pEC50 value, Human NLRP3 (Homo sapiens (Human)), for Oc1cccc(F)c1-c1nnc(N[C@@H]2CC[C@@H](O)C2)c2ccncc12 reads 5.21

The reported pEC50 value, Human NLRP3 (Homo sapiens (Human)), for Oc1cc(C(F)(F)F)cc(F)c1-c1nnc(N[C@@H]2CCCC[C@H]2O)c2cnccc12 reads 7.42

The reported pEC50 value, Human NLRP3 (Homo sapiens (Human)), for OC[C@@H](O)CNc1nnc(-c2c(O)cc(Cl)cc2F)c2ccccc12 reads 6.79

The reported pEC50 value, Human NLRP3 (Homo sapiens (Human)), for Oc1cc(C(F)(F)F)ccc1-c1nnc(N[C@@H]2CC[C@@H](O)C2)c2ccccc12 reads 7.27

The reported pEC50 value, Human NLRP3 (Homo sapiens (Human)), for Oc1cc(F)ccc1-c1nnc(N[C@@H]2CC[C@@H](O)C2)c2cnccc12 reads 6.32

The reported pEC50 value, Human NLRP3 (Homo sapiens (Human)), for Oc1cc(Cl)ccc1-c1nnc(N[C@@H]2CCC[C@H](O)C2)c2cnccc12 reads 7.80

The reported pEC50 value, Human NLRP3 (Homo sapiens (Human)), for Oc1cc(C(F)(F)F)ccc1-c1nnc(N[C@H]2CC[C@H](O)C2)c2ccccc12 reads 6.54

The reported pEC50 value, Human NLRP3 (Homo sapiens (Human)), for Cc1ccc(-c2nnc(NC[C@H](O)CO)c3ccccc23)c(O)c1 reads 6.68

The reported pEC50 value, Human NLRP3 (Homo sapiens (Human)), for Oc1cc(C(F)(F)F)ccc1-c1nnc(N[C@@H]2CCCC[C@H]2O)c2ccccc12 reads 7.42

----------
Assignment: determine reported solubility for the given molecules.
test: Solubility (Test E); type: physicochemical
Give just the numeric value; µM need not be written.

solubility reported for this molecule Oc1cc(Cl)ccc1-c1nnc(N[C@@H]2CCC[C@H](O)C2)c2cnccc12 [Example 44] : 636

solubility reported for this molecule CC(C)(O)CNc1nnc(-c2ccc(C(F)(F)F)cc2O)c2ccncc12 [Example 70] : 5

solubility reported for this molecule Oc1cc(F)ccc1-c1nnc(N[C@@H]2CCCC[C@H]2O)c2ccncc12 [Example 78] : 958

solubility reported for this molecule Oc1cc(C(F)(F)F)ccc1-c1nnc(N[C@H]2CCCC[C@@H]2O)c2ccccc12 [Example 26] : 148

solubility reported for this molecule Oc1cc(C(F)(F)F)ccc1-c1nnc(N[C@H]2CCC[C@@H]2O)c2ccccc12 [Example 22] : 172

solubility reported for this molecule Oc1cc(C(F)(F)F)ccc1-c1nnc(N[C@H]2CCC[C@@H](O)C2)c2cnccc12 [Example 82] : 34

solubility reported for this molecule Oc1cc(Cl)cc(F)c1-c1nnc(N[C@@H]2CCC[C@H](O)C2)c2cnccc12 [Example 46] : 941

solubility reported for this molecule Oc1cc(C(F)(F)F)ccc1-c1nnc(N[C@@H]2CCCCC[C@H]2O)c2ccccc12 (racemic) [Example 27] : 9

solubility reported for this molecule Oc1cc(OC(F)(F)F)ccc1-c1nnc(N[C@@H]2CCC[C@H](O)C2)c2cnccc12 [Example 48] : 326

solubility reported for this molecule Oc1cc(F)ccc1-c1nnc(N[C@@H]2CC[C@@H](O)C2)c2cnccc12 [Example 85] : 68

solubility reported for this molecule Oc1cc(C(F)(F)F)ccc1-c1nnc(N[C@H]2CC[C@@H](O)C2)c2cnccc12 [Example 83] : 47

solubility reported for this molecule Oc1cc(Cl)cc(F)c1-c1nnc(N[C@@H]2CCCC[C@H]2O)c2cnccc12 [Example 57] : 596

solubility reported for this molecule Oc1cc(C(F)(F)F)ccc1-c1nnc(N[C@@H]2CCCC[C@@H]2O)c2ccccc12 [Example 23] : 0.4

solubility reported for this molecule C[C@@]1(O)CC[C@@H](Nc2nnc(-c3ccc(C(F)(F)F)cc3O)c3ccncc23)C1 [Example 38] : 810

solubility reported for this molecule C[C@]1(O)C[C@@H](Nc2nnc(-c3c(O)cc(F)cc3F)c3ccncc23)C1 [Example 69] : 29

solubility reported for this molecule CC(C)(O)CNc1nnc(-c2c(O)cc(C(F)(F)F)cc2F)c2ccncc12 [Example 74] : 17

solubility reported for this molecule C[C@]1(O)C[C@@H](Nc2nnc(-c3c(O)cc(C(F)(F)F)cc3F)c3ccncc23)C1 [Example 67] : 3

solubility reported for this molecule Oc1cc(C(F)(F)F)ccc1-c1nnc(N[C@H]2CCCC[C@H]2O)c2ccccc12 [Example 25] : 3

solubility reported for this molecule Oc1cc(C(F)(F)F)ccc1-c1nnc(N[C@@H]2CC[C@@H](O)C2)c2cnccc12 [Example 59] : 47

solubility reported for this molecule C[C@]1(O)CCC[C@@H](Nc2nnc(-c3ccc(C(F)(F)F)cc3O)c3ccncc23)C1 [Example 62] : 120

solubility reported for this molecule Oc1cc(C(F)(F)F)cc(F)c1-c1nnc(N[C@@H]2CCCC[C@H]2O)c2cnccc12 [Example 55] : 529

solubility reported for this molecule Cc1ccc2c(NC[C@H](O)CO)nnc(-c3ccc(C(F)(F)F)cc3O)c2c1 [Example 15] : 155

solubility reported for this molecule OC[C@@H](O)CNc1nnc(-c2ccc(OC(F)(F)F)cc2O)c2ccccc12 [Example 6] : 130

solubility reported for this molecule Oc1cc(C(F)(F)F)cc(F)c1-c1nnc(N[C@@H]2CCC[C@H](O)C2)c2cnccc12 [Example 45] : 121

solubility reported for this molecule OC[C@@H](O)CNc1nnc(-c2ccc(Cl)cc2O)c2ccccc12 [Example 5] : 6

solubility reported for this molecule Oc1cc(C(F)(F)F)ccc1-c1nnc(N[C@H]2CCC[C@H]2O)c2ccccc12 [Example 21] : 71

solubility reported for this molecule Oc1cc(C(F)(F)F)ccc1-c1nnc(N[C@@H]2CCCC[C@H]2O)c2ccccc12 [Example 24] : 148

solubility reported for this molecule Oc1cc(C(F)(F)F)ccc1-c1nnc(N[C@@H]2CC[C@H](O)C2)c2cnccc12 [Example 60] : 26

solubility reported for this molecule OC[C@@H](O)CNc1nnc(-c2c(O)cc(C(F)(F)F)cc2F)c2ccccc12 [Example 7] : 582

solubility reported for this molecule Oc1cc(OC(F)(F)F)ccc1-c1nnc(N[C@@H]2CCCC[C@H]2O)c2cnccc12 [Example 56] : 263

solubility reported for this molecule Oc1cc(C2CC2)ccc1-c1nnc(N[C@@H]2CCC[C@H](O)C2)c2cnccc12 [Example 52] : 447

solubility reported for this molecule C[C@@]1(O)CCC[C@@H](Nc2nnc(-c3ccc(C(F)(F)F)cc3O)c3ccncc23)C1 [Example 61] : 389
